Listed molecules paired with reported IC50
- System: HeLa
- assay.overview: Cytotoxicity against human HeLa cells assessed as reduction in cell viability measured after 72 hrs by MTS assay
- Assay type: functional, cell-based
measure: IC50 (µM)

sample.smiles	quantitative.result
COc1ccc2c(CO)cn(C)c2c1C(=O)NCC(F)(F)F	110
Cc1ccc(-c2cc(C(F)(F)F)nn2-c2ccc(S(N)(=O)=O)cc2)cc1	58.2

* * *

- test.target: Prostaglandin G/H synthase 1 (Ovis aries)
- Sequence (P05979 whole entry): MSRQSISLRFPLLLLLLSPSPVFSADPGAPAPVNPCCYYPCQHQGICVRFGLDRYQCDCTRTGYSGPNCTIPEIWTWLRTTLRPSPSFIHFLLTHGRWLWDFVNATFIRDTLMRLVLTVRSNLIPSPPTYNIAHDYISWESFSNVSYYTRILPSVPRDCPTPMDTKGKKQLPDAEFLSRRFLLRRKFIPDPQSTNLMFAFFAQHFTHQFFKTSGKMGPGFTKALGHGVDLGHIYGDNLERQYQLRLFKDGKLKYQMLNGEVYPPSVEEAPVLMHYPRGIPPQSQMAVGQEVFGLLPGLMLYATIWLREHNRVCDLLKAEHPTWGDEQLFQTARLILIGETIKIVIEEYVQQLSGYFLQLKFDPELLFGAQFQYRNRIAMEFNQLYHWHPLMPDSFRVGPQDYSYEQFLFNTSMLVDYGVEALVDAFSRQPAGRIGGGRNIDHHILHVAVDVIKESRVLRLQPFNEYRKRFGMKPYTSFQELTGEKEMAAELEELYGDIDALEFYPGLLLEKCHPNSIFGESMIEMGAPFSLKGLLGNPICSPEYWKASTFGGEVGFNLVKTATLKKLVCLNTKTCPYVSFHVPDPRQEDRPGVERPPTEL
pIC50: −log10 of the molar value.
measure: pIC50

sample.smiles	test.target	quantitative.result
COc1ccc2c(CO)cn(C)c2c1C(=O)NCC(F)(F)F	Prostaglandin G/H synthase 1 (Ovis aries)	4.07

* * *

Listed molecules paired with reported pIC50
- Tested on: DU-145
- assay.overview: Cytotoxicity against human DU-145 cells assessed as reduction in cell viability measured after 72 hrs by MTS assay
- Type: functional, cell-based
- study.conditions: DU-145, 72 h
pIC50: −log10 of the molar value.
measure: pIC50

molecule	measure	quantitative.result
COc1ccc2c(CO)cn(C)c2c1C(=O)NCC(F)(F)F	pIC50	3.84
Cc1ccc(-c2cc(C(F)(F)F)nn2-c2ccc(S(N)(=O)=O)cc2)cc1 [CELECOXIB]	pIC50	4.23
